test system: IM-95 (Gastric Carcinoma); assay: combination Emax (second highest fraction inhibited in the dose matrix, 72 h); higher = more inhibition; extreme values may be limits of the assay
Measure name: combination Emax

{"Molecule": "CS(=O)(=O)CCNCc1ccc(-c2ccc3ncnc(Nc4ccc(OCc5cccc(F)c5)c(Cl)c4)c3c2)o1 [Lapatinib] + C[C@@H](Oc1cc(-c2cnn(C3CCNCC3)c2)cnc1N)c1c(Cl)ccc(F)c1Cl [Crizotinib] (first compound max 10 µM, 7x7, partner max 10 µM)", "Measured value": 0.854}
{"Molecule": "CN(CCO)CC[C@H](CSc1ccccc1)Nc1ccc(S(=O)(=O)NC(=O)c2ccc(N3CCC([C@@H](O)c4ccccc4-c4ccc(Cl)cc4)CC3)cc2)cc1S(=O)(=O)C(F)(F)F [AZD4320] + Cn1cnc2c(F)c(Nc3ccc(Br)cc3Cl)c(C(=O)NOCCO)cc21 [Selumetinib] (first compound max 1 µM, 7x7, partner max 3 µM)", "Measured value": 0.876}
{"Molecule": "C[C@@H](c1ccc2nccn2c1)n1nnc2ncc(-c3cnn(C)c3)nc21 [Savolitinib] + CN(CC[C@H](CSC1=CC=CC=C1)NC2=C(C=C(C=C2)S(=O)(=O)NC(=O)C3=CC=C(C=C3)N4CCC(CC4)[C@H](C5=CC=CC=C5C6=CC=C(C=C6)Cl)O)S(=O)(=O)C(F)(F)F)CCO [AZD4320] (first compound max 1 µM, 7x7, partner max 1 µM)", "Measured value": 0.675}

====

test system: NCI-H661 (Non-Small Cell Lung Carcinoma); experiment: Bliss excess, mean over the matrix (fraction); higher = more synergy
A collection of compounds and their measured Bliss excess

{"Compound": "NC1(C(=O)N[C@@H](CCO)c2ccc(Cl)cc2)CCN(c2ncnc3[nH]ccc23)CC1 [Capivasertib] + Cn1cnc2c(F)c(Nc3ccc(Br)cc3Cl)c(C(=O)NOCCO)cc21 [Selumetinib] (first compound max 10 µM, 7x7, partner max 10 µM)", "Target of assay": "NCI-H661 (Non-Small Cell Lung Carcinoma)", "Bliss excess": -0.0074}
{"Compound": "COc1cc2c(cc1OCCCCCOc1cc3c(cc1OC)C(=O)N1C=C(C)C[C@H]1C=N3)N=C[C@@H]1CC(C)=CN1C2=O [SG3199] + O=C(c1cc(Cc2n[nH]c(=O)c3ccccc23)ccc1F)N1CCN(C(=O)C2CC2)CC1 [Olaparib] (first compound max 0.001 µM, 7x7, partner max 10 µM)", "Target of assay": "NCI-H661 (Non-Small Cell Lung Carcinoma)", "Bliss excess": -0.0432}
{"Compound": "COc1nnc2ccc(N3CCC(c4ccc(OCCN5CCN(C)C(=O)[C@H]5C)cc4)CC3)nn12 [AZD5153] + CCN(CCO)CCCOc1ccc2c(Nc3cc(CC(=O)Nc4cccc(F)c4)[nH]n3)ncnc2c1 [AZD2811] (first compound max 1 µM, 7x7, partner max 1 µM)", "Target of assay": "NCI-H661 (Non-Small Cell Lung Carcinoma)", "Bliss excess": -0.0318}
{"Compound": "CCN(CCO)CCCOc1ccc2c(Nc3cc(CC(=O)Nc4cccc(F)c4)[nH]n3)ncnc2c1 [AZD2811] + C=CCn1c(=O)c2cnc(Nc3ccc(N4CCN(C)CC4)cc3)nc2n1-c1cccc(C(C)(C)O)n1 [AZD1775] (first compound max 1 µM, partner max 1 µM)", "Target of assay": "NCI-H661 (Non-Small Cell Lung Carcinoma)", "Bliss excess": -0.0029}
{"Compound": "C=CCn1c(=O)c2cnc(Nc3ccc(N4CCN(C)CC4)cc3)nc2n1-c1cccc(C(C)(C)O)n1 [AZD1775] + O=C(c1cc(Cc2n[nH]c(=O)c3ccccc23)ccc1F)N1CCN(C(=O)C2CC2)CC1 [Olaparib] (first compound max 1 µM, partner max 10 µM)", "Target of assay": "NCI-H661 (Non-Small Cell Lung Carcinoma)", "Bliss excess": -0.0179}
{"Compound": "NC1(C(=O)N[C@@H](CCO)c2ccc(Cl)cc2)CCN(c2ncnc3[nH]ccc23)CC1 [Capivasertib] + C[C@@H]1COCCN1C2=NC(=NC(=C2)C3(CC3)[S@](=N)(=O)C)C4=C5C=CNC5=NC=C4 [AZD6738] (first compound max 10 µM, 7x7, partner max 10 µM)", "Target of assay": "NCI-H661 (Non-Small Cell Lung Carcinoma)", "Bliss excess": -0.0645}
{"Compound": "CC1(C)CCC(CN2CCN(c3ccc(C(=O)NS(=O)(=O)c4ccc(NCC5CCOCC5)c([N+](=O)[O-])c4)c(Oc4cnc5[nH]ccc5c4)c3)CC2)=C(c2ccc(Cl)cc2)C1 [Venetoclax] + CCN(CCO)CCCOc1ccc2c(Nc3cc(CC(=O)Nc4cccc(F)c4)[nH]n3)ncnc2c1 [AZD2811] (first compound max 1 µM, 7x7, partner max 1 µM)", "Target of assay": "NCI-H661 (Non-Small Cell Lung Carcinoma)", "Bliss excess": -0.0105}

====

system: CW-2 (Colorectal Carcinoma); assay: Bliss excess, mean over the matrix (fraction); higher = more synergy

{"Compound": "Cc1c2c(nn1C)CSCc1cc(n(C)n1)CSc1cc(c3ccccc3c1)OCCCc1c(C(=O)O)n(C)c3c-2c(Cl)ccc13 [AZD5991] + Cc1cc2ncnn2cc1Nc1ncc2c(n1)n(C1CCOCC1)c(=O)n2C [AZD7648] (first compound max 1 µM, 7x7, partner max 10 µM)", "Bliss excess": 0.0242}
{"Compound": "C[C@@H]1COCCN1c1cc(C2([S@](C)(=N)=O)CC2)nc(-c2ccnc3[nH]ccc23)n1 [AZD6738] + O=C(c1cc(Cc2n[nH]c(=O)c3ccccc23)ccc1F)N1CCN(C(=O)C2CC2)CC1 [Olaparib] (first compound max 10 µM, 7x7, partner max 10 µM)", "Bliss excess": 0.0008}

====

tested on: ESO51 (Esophageal Adenocarcinoma); assay: combination Emax (second highest fraction inhibited in the dose matrix, 72 h); higher = more inhibition; extreme values may be limits of the assay
A collection of molecules and their measured combination Emax
Measure name: combination Emax

{"Molecule": "CN(CCO)CC[C@H](CSc1ccccc1)Nc1ccc(S(=O)(=O)NC(=O)c2ccc(N3CCC([C@@H](O)c4ccccc4-c4ccc(Cl)cc4)CC3)cc2)cc1S(=O)(=O)C(F)(F)F [AZD4320] + CN(C)CCCOc1ccc(-c2ccc3ncc4c(c3c2)n(C2CCOCC2)c(=O)n4C)cn1 [AZD0156] (first compound max 1 µM, 7x7, partner max 1 µM)", "Target of assay": "ESO51 (Esophageal Adenocarcinoma)", "Measured value": 0.193}
{"Molecule": "COc1cccc(OCCCN)c1-c1cc(Nc2cnc(C#N)cn2)n[nH]1 [Prexasertib] + C=CCn1c(=O)c2cnc(Nc3ccc(N4CCN(C)CC4)cc3)nc2n1-c1cccc(C(C)(C)O)n1 [AZD1775] (first compound max 1 µM, partner max 1 µM)", "Target of assay": "ESO51 (Esophageal Adenocarcinoma)", "Measured value": 0.757}

====

system: NCI-H3122 (Lung Adenocarcinoma); test: Bliss excess, mean over the matrix (fraction); higher = more synergy
Note to self: values exactly at -0.08 are satisfied. So Bliss excess at or above -0.08 is satisfied, below is not satisfied.

{"Compound": "COc1nnc2ccc(N3CCC(c4ccc(OCCN5CCN(C)C(=O)[C@H]5C)cc4)CC3)nn12 [AZD5153] + CCN(CCO)CCCOc1ccc2c(Nc3cc(CC(=O)Nc4cccc(F)c4)[nH]n3)ncnc2c1 [AZD2811] (first compound max 1 µM, 7x7, partner max 1 µM)", "Group label": "satisfied"}
{"Compound": "Cc1c2c(nn1C)CSCc1cc(n(C)n1)CSc1cc(c3ccccc3c1)OCCCc1c(C(=O)O)n(C)c3c-2c(Cl)ccc13 [AZD5991] + CN(C)CCCOc1ccc(-c2ccc3ncc4c(c3c2)n(C2CCOCC2)c(=O)n4C)cn1 [AZD0156] (first compound max 1 µM, 7x7, partner max 1 µM)", "Group label": "satisfied"}
{"Compound": "NC1(C(=O)N[C@@H](CCO)c2ccc(Cl)cc2)CCN(c2ncnc3[nH]ccc23)CC1 [Capivasertib] + C[C@@H]1COCCN1C2=NC(=NC(=C2)C3(CC3)[S@](=N)(=O)C)C4=C5C=CNC5=NC=C4 [AZD6738] (first compound max 10 µM, 7x7, partner max 10 µM)", "Group label": "satisfied"}
{"Compound": "C[C@@H](Oc1cc(-c2cnn(C3CCNCC3)c2)cnc1N)c1c(Cl)ccc(F)c1Cl [Crizotinib] + Cn1cnc2c(F)c(Nc3ccc(Br)cc3Cl)c(C(=O)NOCCO)cc21 [Selumetinib] (first compound max 10 µM, 7x7, partner max 10 µM)", "Group label": "satisfied"}
{"Compound": "CC1(C)CCC(CN2CCN(c3ccc(C(=O)NS(=O)(=O)c4ccc(NCC5CCOCC5)c([N+](=O)[O-])c4)c(Oc4cnc5[nH]ccc5c4)c3)CC2)=C(c2ccc(Cl)cc2)C1 [Venetoclax] + Cn1cnc2c(F)c(Nc3ccc(Br)cc3Cl)c(C(=O)NOCCO)cc21 [Selumetinib] (first compound max 1 µM, 7x7, partner max 3 µM)", "Group label": "satisfied"}
{"Compound": "Cn1cnc2c(F)c(Nc3ccc(Br)cc3Cl)c(C(=O)NOCCO)cc21 [Selumetinib] + C=CCn1c(=O)c2cnc(Nc3ccc(N4CCN(C)CC4)cc3)nc2n1-c1cccc(C(C)(C)O)n1 [AZD1775] (first compound max 10 µM, partner max 1 µM)", "Group label": "not satisfied"}
{"Compound": "C[C@@H]1COCCN1c1cc(C2([S@](C)(=N)=O)CC2)nc(-c2ccnc3[nH]ccc23)n1 [AZD6738] + C1CC(C1)(C(=O)[O-])C(=O)[O-].N.N.[Pt+2] [Carboplatin] (first compound max 10 µM, 7x7, partner max 10 µM)", "Group label": "not satisfied"}

Cited source: the supplement of paper PMC11061612
